// pIC50 lookup, one value per entry
target: Human TRPA1 (Homo sapiens (Human)); assay: FLIPR based intracellular Ca2+ assay and membrane potential assay, AITC-activated TRPA1; conditions: hTRPA1 transiently expressed in HEK293-F cells, AITC as agonist
Sequence (O75762 whole entry): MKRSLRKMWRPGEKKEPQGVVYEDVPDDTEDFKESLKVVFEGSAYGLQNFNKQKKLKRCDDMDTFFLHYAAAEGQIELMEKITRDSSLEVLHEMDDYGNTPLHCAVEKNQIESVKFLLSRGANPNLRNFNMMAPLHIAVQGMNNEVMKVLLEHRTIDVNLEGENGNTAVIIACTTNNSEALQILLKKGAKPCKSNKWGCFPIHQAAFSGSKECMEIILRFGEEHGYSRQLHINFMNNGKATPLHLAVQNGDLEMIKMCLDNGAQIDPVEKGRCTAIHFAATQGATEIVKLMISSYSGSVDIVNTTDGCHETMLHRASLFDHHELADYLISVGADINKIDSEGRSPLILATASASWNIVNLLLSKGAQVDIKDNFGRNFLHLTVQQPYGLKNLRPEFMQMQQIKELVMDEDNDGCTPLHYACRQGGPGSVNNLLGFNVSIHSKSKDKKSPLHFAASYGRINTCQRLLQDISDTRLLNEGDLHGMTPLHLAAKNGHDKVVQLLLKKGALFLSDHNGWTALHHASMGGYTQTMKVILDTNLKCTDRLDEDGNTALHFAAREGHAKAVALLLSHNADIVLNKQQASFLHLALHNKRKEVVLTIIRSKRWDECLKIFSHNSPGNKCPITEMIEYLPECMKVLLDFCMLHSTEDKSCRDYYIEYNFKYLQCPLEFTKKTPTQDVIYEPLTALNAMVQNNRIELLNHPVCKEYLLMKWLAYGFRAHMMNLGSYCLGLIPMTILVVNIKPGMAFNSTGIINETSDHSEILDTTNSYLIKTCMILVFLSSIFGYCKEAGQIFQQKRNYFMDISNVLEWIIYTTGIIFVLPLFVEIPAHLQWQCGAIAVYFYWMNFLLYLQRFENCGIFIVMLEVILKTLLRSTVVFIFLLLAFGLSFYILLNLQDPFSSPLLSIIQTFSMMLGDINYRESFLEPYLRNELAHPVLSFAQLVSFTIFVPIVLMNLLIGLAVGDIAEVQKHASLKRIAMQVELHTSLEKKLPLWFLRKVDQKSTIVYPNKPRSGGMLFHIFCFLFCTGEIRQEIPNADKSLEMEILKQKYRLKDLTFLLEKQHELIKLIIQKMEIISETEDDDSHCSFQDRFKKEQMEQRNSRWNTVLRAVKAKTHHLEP
// scale note: pIC50 = -log10(conc_M); give the bare number

Answered cases to consult:
1) CCC(=N\O)/C(C)=C/c1ccncc1 : 5.06
2) CCC(=N\O)/C(C)=C/c1ccsc1 : 5.88

pIC50 reported for this compound CCC(=N\O)/C(C)=C/c1cccs1 : 4.96

compound CCC(=N\O)/C(C)=C/c1cccnc1 , pIC50 observed: 4.77

Form field pIC50, entry CCC(=N\O)/C(C)=C/c1ccc(F)nc1 : 5.90

Entry CCC(=N\O)/C(C)=C/c1ccc(OC)nc1 — recorded pIC50 = 4.63
